Target: Cytochrome P450 2D6 (Homo sapiens)
Sequence (P10635 whole entry): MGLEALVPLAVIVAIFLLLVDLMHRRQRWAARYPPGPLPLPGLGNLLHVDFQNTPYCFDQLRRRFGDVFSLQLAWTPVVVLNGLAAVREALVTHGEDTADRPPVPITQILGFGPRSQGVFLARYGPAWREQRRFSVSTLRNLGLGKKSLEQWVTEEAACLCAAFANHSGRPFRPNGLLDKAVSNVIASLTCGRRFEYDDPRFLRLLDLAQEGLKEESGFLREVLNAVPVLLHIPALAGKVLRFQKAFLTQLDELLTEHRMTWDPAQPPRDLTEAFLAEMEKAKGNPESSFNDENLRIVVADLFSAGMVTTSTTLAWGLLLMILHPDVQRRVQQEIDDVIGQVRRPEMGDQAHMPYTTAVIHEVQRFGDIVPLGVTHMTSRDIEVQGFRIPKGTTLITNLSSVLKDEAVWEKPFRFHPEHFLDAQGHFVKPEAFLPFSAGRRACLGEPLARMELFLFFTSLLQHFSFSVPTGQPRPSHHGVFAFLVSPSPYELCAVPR
pIC50: −log10 of the molar value.
property_measured: pIC50

Measured pIC50 for this entry C[C@H]1CC2(CCN(c3ccc(C(=O)N4CCN(C5CN(c6ccc7c(c6)C(=O)N(C6CCC(=O)NC6=O)C7=O)C5)CC4)cc3)CC2)CN1c1ccc(C#N)c(Cl)c1 (stereo partly specified) on Cytochrome P450 2D6 (Homo sapiens): < 5.00

###

Activity values, listed per item
Biological target: Androgen receptor (Homo sapiens)
Assay: Induction of androgen receptor degradation in human VCaP cells at 0.01 uM after 24 hrs by Western blotting analysis relative to control
Assay type: cell-based
Write the number in % without appending the unit.

[[record]]
compound = "C[C@@H]1CC2(CCN(c3ccc(C(=O)N4CCN(C5CN(c6ccc7c(c6)C(=O)N(C6CCC(=O)NC6=O)C7=O)C5)CC4)cc3)CC2)CN1c1ccc(C#N)c(Cl)c1 (stereo partly drawn)"
measurement = 66


Now let's try a different one.
The measured Activity associated with N#Cc1ccc(N2CCC3(CCN(c4ccc(C(=O)N5CCC(N6CCN(c7ccc8c(c7)C(=O)N(C7CCC(=O)NC7=O)C8=O)CC6)CC5)cc4)CC3)C2)cc1Cl (stereo not drawn) reads 37

###

Target: Androgen receptor (Homo sapiens) (UniProt P10275)
Experiment: Induction of androgen receptor degradation in human VCaP cells at 1 uM after 24 hrs by Western blotting analysis relative to control
Type: cell-based
property_measured: Activity (%)
Give just the number in %; leave the unit off.

Notebook: N#Cc1ccc(N2CCC3(CCN(c4ccc(C(=O)N5CC6(C5)CN(C5CCN(c7ccc8c(c7)C(=O)N(C7CCC(=O)NC7=O)C8=O)CC5)C6)cc4)CC3)C2)cc1Cl (stereo unspecified) , Activity read as 73

// sample N#Cc1ccc(N2CCC3(CCN(c4ccc(C(=O)N5CCN(CC6CN(c7ccc8c(c7)C(=O)N(C7CCC(=O)NC7=O)C8=O)C6)CC5)cc4)CC3)C2)cc1Cl (stereo unspecified) , its Activity was 85

Recorded Activity (molecule N#Cc1ccc(N2CCC3(CCN(C(=O)c4ccc(N5CCN(C6CCN(c7ccc8c(c7)C(=O)N(C7CCC(=O)NC7=O)C8=O)CC6)CC5)cc4)CC3)C2)cc1Cl (stereo unspecified) ): 56

According to the records, this molecule C[C@H]1CC2(CCN(c3ccc(C(=O)N4CCC(C5CN(c6ccc7c(c6)C(=O)N(C6CCC(=O)NC6=O)C7=O)C5)CC4)cc3)CC2)CN1c1ccc(C#N)c(Cl)c1 (stereo partly specified) displays Activity of 92

###

Target: Androgen receptor (Homo sapiens) (UniProt P10275)
Sequence (whole entry): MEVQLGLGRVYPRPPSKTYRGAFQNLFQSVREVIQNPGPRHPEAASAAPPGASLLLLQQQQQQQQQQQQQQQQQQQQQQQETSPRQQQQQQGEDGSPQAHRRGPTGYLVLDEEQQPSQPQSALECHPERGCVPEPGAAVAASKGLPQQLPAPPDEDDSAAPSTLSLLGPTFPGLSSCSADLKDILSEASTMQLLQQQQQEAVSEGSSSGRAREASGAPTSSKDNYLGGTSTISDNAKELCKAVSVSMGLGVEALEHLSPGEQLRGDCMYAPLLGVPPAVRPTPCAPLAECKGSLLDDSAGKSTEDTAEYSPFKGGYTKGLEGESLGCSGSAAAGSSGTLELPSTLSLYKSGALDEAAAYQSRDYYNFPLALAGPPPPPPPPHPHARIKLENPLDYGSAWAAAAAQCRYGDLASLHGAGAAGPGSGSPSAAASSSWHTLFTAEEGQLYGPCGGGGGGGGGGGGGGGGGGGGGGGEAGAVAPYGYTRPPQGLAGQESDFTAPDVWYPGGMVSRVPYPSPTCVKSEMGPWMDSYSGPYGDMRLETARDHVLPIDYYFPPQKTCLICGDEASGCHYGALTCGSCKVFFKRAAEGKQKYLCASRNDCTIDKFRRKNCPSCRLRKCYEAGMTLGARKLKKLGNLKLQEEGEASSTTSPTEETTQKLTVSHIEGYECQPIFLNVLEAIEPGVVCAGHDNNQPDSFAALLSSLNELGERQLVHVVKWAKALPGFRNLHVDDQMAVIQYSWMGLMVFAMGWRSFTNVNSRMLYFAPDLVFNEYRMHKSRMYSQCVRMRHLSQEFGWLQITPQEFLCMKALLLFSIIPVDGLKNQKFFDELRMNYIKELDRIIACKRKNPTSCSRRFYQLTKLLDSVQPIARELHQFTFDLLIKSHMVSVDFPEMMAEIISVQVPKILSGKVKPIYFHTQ
Test: Induction of androgen receptor degradation in human VCaP cells at 0.1 uM after 24 hrs by Western blotting analysis relative to control
Format: cell-based
property_measured: Activity (%)
Write down the numeric answer in % and omit the unit.

[[record]]
compound = "N#Cc1ccc(N2CCC3(CCN(c4ccc(C(=O)N5CCN(C6CCN(c7ccc8c(c7)C(=O)N(C7CCC(=O)NC7=O)C8=O)CC6)CC5)cc4)CC3)C2)cc1Cl (stereo unspecified)"
measurement = 74

[[record]]
compound = "N#Cc1ccc(N2CCC3(CCN(c4ccc(C(=O)N5CC6CC(C5)CN(C5CCN(c7ccc8c(c7)C(=O)N(C7CCC(=O)NC7=O)C8=O)CC5)C6)cc4)CC3)C2)cc1Cl (stereo unspecified)"
measurement = 80


// next item, Activity requested
Short answer on Androgen receptor (Homo sapiens) (UniProt P10275) for C[C@H]1CC2(CCN(c3ccc(C(=O)N4C[C@H]5C[C@@H]4CN5C4CN(c5ccc6c(c5)C(=O)N(C5CCC(=O)NC5=O)C6=O)C4)cc3)CC2)CN1c1ccc(C#N)c(Cl)c1 (stereo partly specified) , Activity: 93

FYI, the data here is from ChEMBL document CHEMBL5331127.
